# System: ECAC2 mRNA in Caco-2 cells
# Assay type: cell-based
# Protocol: The mRNA Expression Assay of ECAC2 in Caco-2 Cells The dispersed cells were plated in 48-well plate at a concentration of 6.3×10^4 cells/well and incubated for 4 days at 37° C. […] ECAC2 mRNA expression was determined using TaqMan One-step RT-PCR Master Mix Reagents Kit and PRISM7000 systems from Applied Biosystems. […] The EC50 values of ECAC2 mRNA values were analyzed by Emax models. The ECAC2 mRNA ratio was calculated as the ratio of the EC50 value of the compounds to that of LG190178. […]
This section presents compounds with their documented ECaC-2 mRNA induction activity in Caco-2 cells values.
Answer format: numeric, % implied, no suffix.

Recorded ECaC-2 mRNA induction activity in Caco-2 cells of CCC(CC)(c1ccc(/C=C/C(O)(C(F)(F)F)C(F)(F)F)c(C)c1)c1ccc(OC[C@H](O)CC(=O)O)c(C)c1 , please.
172

What value of measured ECaC-2 mRNA induction activity in Caco-2 cells is listed for CCC(CC)(c1ccc(/C=C/C(O)(C(F)(F)F)C(F)(F)F)c(C)c1)c1ccc(OCCCCC(=O)O)c(C)c1 ?
1843

I'd like to know its ECaC-2 mRNA induction activity in Caco-2 cells. The compound in question is CCC(CC)(c1ccc(/C=C/C(O)(C(F)(F)F)C(F)(F)F)c(C)c1)c1ccc(OC[C@@H]2CCCO2)c(C)c1
1647

Can you look up the measured ECaC-2 mRNA induction activity in Caco-2 cells of CCc1cc(C(CC)(CC)c2ccc(C(=O)N[C@@H](C)C(=O)O)s2)ccc1OCC(C)(O)C(C)(C)C (single isomer, unassigned) [Compound C, reference compound] for me?
34
